target: Ubiquitin carboxyl-terminal hydrolase 30 (Homo sapiens); assay: inhibitors of ubiquitin-specific protease 30 deubiquitylating enzyme, concentration dependence, in vitro biochemical, validation of primary hits (AID 1645865); conditions: purified USP30, Ub-rhodamine cleavage, fluorescence, 2 h
The source made the active and inactive calls.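 The calls were made as follows: active = maximal inhibition of the USP30 enzyme reaching 30% or more across the dose series; inactive = the rest.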
Pick one: 1 (active), 0 (inactive)

Solved cases (4 shown):
CN=C(N)NCCC/C=C/CCCC(C)CC(C)C1OC(=O)/C=C/C(C)C(O)CC(O)C(C)C(O)CCC(C)C(O)CC2(O)OC(CC(OC(=O)CC(=O)O)CC(O)CC(O)C(C)C(O)/C=C/C1C)CC(O)C2O (stereo not given): 1
COc1cc(-c2ccno2)ccc1S(=O)(=O)Nc1ccccc1Cl: 0
COc1ccc(CCNC(=O)CCCCn2c(=O)c3ccccc3n(Cc3cccc(Cl)c3)c2=O)cc1OC: 1
COc1ccc(-c2cc3c(=O)n(CC(=O)Nc4ccccc4F)ccn3n2)cc1OC: 1

# input for lookup
Task: Could you kindly confirm the outcome this assay logged for `Cc1ccc(Nc2nc(Nc3cccc(Cl)c3)nc3nccnc23)cc1` ?
Output: 0

###

molecular target: Ubiquitin carboxyl-terminal hydrolase 30 (Homo sapiens) (UniProt Q70CQ3); test: inhibitors of ubiquitin-specific protease 30 deubiquitylating enzyme, concentration dependence, in vitro biochemical, validation of primary hits (AID 1645865); conditions: purified USP30, Ub-rhodamine cleavage, fluorescence, 2 h
Sequence (Q70CQ3 whole entry, looked up): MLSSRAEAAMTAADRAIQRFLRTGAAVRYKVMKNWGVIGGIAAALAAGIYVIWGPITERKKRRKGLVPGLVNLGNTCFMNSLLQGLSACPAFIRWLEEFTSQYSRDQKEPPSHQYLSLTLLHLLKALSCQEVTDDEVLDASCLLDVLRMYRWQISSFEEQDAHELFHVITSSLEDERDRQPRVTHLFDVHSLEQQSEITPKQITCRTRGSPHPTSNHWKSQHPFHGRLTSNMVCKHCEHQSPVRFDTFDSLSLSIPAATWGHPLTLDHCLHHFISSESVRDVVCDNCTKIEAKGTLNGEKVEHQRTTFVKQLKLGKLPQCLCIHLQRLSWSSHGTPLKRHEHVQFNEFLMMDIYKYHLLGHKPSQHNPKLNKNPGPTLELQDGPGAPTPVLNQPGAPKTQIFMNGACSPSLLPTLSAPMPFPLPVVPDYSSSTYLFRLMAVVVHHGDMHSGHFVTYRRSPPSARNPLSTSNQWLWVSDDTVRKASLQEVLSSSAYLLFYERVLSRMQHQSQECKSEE
The source made the active and inactive calls.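 How the source made its calls: active means maximal inhibition of the USP30 enzyme reaching 30% or more across the dose series; inactive means the rest.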
Pick one: t = active, f = inactive

Solved cases (3 shown):
Cc1cccc(CNC(=O)C2CCCN(S(=O)(=O)Cc3ccc(F)cc3)C2)c1 (stereo not given): t
Cc1cc(C)c(NC(=O)CSc2nc3nccnc3c(=O)n2Cc2ccccc2Cl)c(C)c1: t
CCOc1ccccc1NC(=O)Cn1c(-c2ccc3c(c2)OCO3)cn(-c2ccc(OC)cc2)c1=O: f

Task: Could you kindly confirm the outcome this assay logged for `COc1ccc(C)cc1NC(=O)COc1ccc2c(c1)OCO2` ?
Output: f

Task: Next: `Cc1ccc(C(=O)NCc2ccc(C(=O)Nc3cccc(C)c3)o2)cc1`
Output: t

###

biological target: UniProtKB Q70CQ3; assay: inhibitors of ubiquitin-specific protease 30 deubiquitylating enzyme, concentration dependence, in vitro biochemical, validation of primary hits (AID 1645865); details: purified USP30, Ub-rhodamine cleavage, fluorescence, 2 h
Active and inactive are the calls of the source.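 Rule for the calls: active = maximal inhibition of the USP30 enzyme reaching 30% or more across the dose series; inactive = the rest.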
Pick one: active, inactive

O=C(Nc1ccccc1)c1ccc2c(c1)CC(c1ccccc1)OC2=O (configuration not stated): active
Cc1c(-c2ccccc2)oc2c(C(=O)OCC(=O)Nc3ccccc3F)cccc2c1=O: inactive
COc1ccc(C2CC(c3ccc(C)cc3)N(C(=O)C3CC3)c3ncnn32)cc1 (configuration not stated): inactive
CCc1ccc(-n2c(=O)c3ccccc3n(CC(=O)NCCC3=CCCCC3)c2=O)cc1: active
NS(=O)(=O)c1ccc(Cl)c(C(=O)OCc2csc(Nc3ccccc3)n2)c1: inactive
COc1cc(C2SCC(=O)Nc3c2c(-c2ccccc2)nn3-c2ccccc2)cc(OC)c1OC (configuration not stated): inactive
N#Cc1ccc(NC(=O)COC(=O)c2ccc3ccccc3n2)cc1: inactive
COc1cccc(-c2cc(C(=O)Nc3cc(C)n(Cc4ccc(Cl)cc4)n3)no2)c1: active

Task: Could you kindly confirm the outcome this assay logged for `CCOc1ccccc1C(=O)Oc1ccc2c(C)cc(=O)oc2c1` ?
Output: active

Task: Next: `COC(=O)COc1ccc(/C=N/NC(=O)c2ccc(CN3CCc4ccccc4C3)cc2)cc1`
Output: active

Task: Next: `Cc1ccc(NC(=O)c2cc(=O)n(C)c3c2c(=O)n(C)c(=O)n3C)c(C)c1`
Output: inactive

Task: Next: `CCn1c(=O)c2ccccc2n(Cc2nc(-c3ccccc3OC)no2)c1=O`
Output: inactive

Task: Next: CC(C)(C)C(=O)NC(c1ccccc1)c1nnc(N2CCOCC2)o1 (configuration not stated)
Output: inactive

Task: Next: `Cc1ccc2[nH]c(=O)c(-c3nc4ccc(C)cn4c3NCc3ccc(F)cc3)cc2c1`
Output: active

Task: Next: `O=C(CSc1nnc(-c2ccncc2)n1Cc1ccccc1)c1ccc2[nH]c(O)cc2c1`
Output: inactive

Task: Next: `O=c1sc2ccccc2c(=O)n1Cc1cccc(C(F)(F)F)c1`
Output: inactive

Task: Next: `Fc1ccc(Cn2ccc(-c3cnc(-c4ccccc4)s3)n2)cc1`
Output: inactive

###

molecular target: UniProt Q70CQ3; test: inhibitors of ubiquitin-specific protease 30 deubiquitylating enzyme, concentration dependence, in vitro biochemical, validation of primary hits (AID 1645865); conditions: purified USP30, Ub-rhodamine cleavage, fluorescence, 2 h
Calls of active or inactive are those of the source.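 The calls were made as follows: active = maximal inhibition of the USP30 enzyme reaching 30% or more across the dose series; inactive = the rest.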
Pick one: T = active, F = inactive

Cc1ccc2cccc(OCc3nnc(SCC(=O)c4ccc(Cl)cc4)n3C)c2n1: T
CC(C)=CCC/C(C)=C/Cc1c(O)cc2c(c1O)C(=O)OC2: T
CCN(CC)C(=O)CN1CCCC(c2ncncc2-c2cc(C)no2)C1 (stereo unspecified): F
O=C(Cc1c[nH]c2ccccc12)Nc1nc2ccccc2s1: F
COc1ccc(C2CC(=O)Nc3ccc4ccccc4c32)c(OC)c1OC (stereo unspecified): T

Task: Could you kindly confirm the outcome this assay logged for `CCn1c(CNc2ccc(Cl)cc2)nnc1SCC(=O)Nc1ccccc1` ?
Output: F

###

target: Ubiquitin carboxyl-terminal hydrolase 30 (Homo sapiens) (UniProt Q70CQ3); assay: inhibitors of ubiquitin-specific protease 30 deubiquitylating enzyme, concentration dependence, in vitro biochemical, validation of primary hits (AID 1645865); details: purified USP30, Ub-rhodamine cleavage, fluorescence, 2 h
Calls of active or inactive are those of the source.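 The calls were made as follows: active = maximal inhibition of the USP30 enzyme reaching 30% or more across the dose series; inactive = the rest.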
Pick one: True (active), False (inactive)

COc1ccc(OC)c(-c2c(C#N)c(C)nc3c2N2CCC3CC2)c1: True

Task: Could you kindly confirm the outcome this assay logged for `NC(=O)C1(N2CCCCC2)CCN(C(=O)c2[nH]nc3c2CCc2ccccc2-3)CC1` ?
Output: False

Task: Next: `Cc1noc(-c2cccc(=O)n2CC(=O)Nc2ccc(C)c(C)c2)n1`
Output: True

Task: Next: `O=C(NCc1ccccc1Cl)c1ccc2cn[nH]c2c1`
Output: False

###

molecular target: Ubiquitin carboxyl-terminal hydrolase 30 (Homo sapiens); assay: inhibitors of ubiquitin-specific protease 30 deubiquitylating enzyme, concentration dependence, in vitro biochemical, validation of primary hits (AID 1645865); conditions: purified USP30, Ub-rhodamine cleavage, fluorescence, 2 h
The source made the active and inactive calls.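 Rule for the calls: active = maximal inhibition of the USP30 enzyme reaching 30% or more across the dose series; inactive = the rest.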
property-label: IC50

COc1cccc(NC(=O)c2ccc(F)cc2Cl)c1: > 50 µM (inactive)
NS(=O)(=O)c1ccc(CNS(=O)(=O)c2ccc(-c3ccccn3)s2)cc1: 24.5 µM
CC(=O)Nc1ccc(S(=O)(=O)NCc2ccc(C(=O)NCCc3ccc(Cl)cc3)cc2)cc1: 1.71 µM

Task: Lab note: need IC50 for `COc1ccc(-c2nnc(SCc3ccccc3C#N)o2)c(OC)c1` on Ubiquitin carboxyl-terminal hydrolase 30 (Homo sapiens), anyone have it?
Output: 49.7 µM

###

molecular target: Ubiquitin carboxyl-terminal hydrolase 30 (Homo sapiens) (UniProt Q70CQ3); test: inhibitors of ubiquitin-specific protease 30 deubiquitylating enzyme, concentration dependence, in vitro biochemical, validation of primary hits (AID 1645865); settings: purified USP30, Ub-rhodamine cleavage, fluorescence, 2 h
Active and inactive are the calls of the source.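 How the source made its calls: active means maximal inhibition of the USP30 enzyme reaching 30% or more across the dose series; inactive means the rest.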
Pick one: active, inactive

Cc1c(Cl)cccc1NC(=O)Cn1ccc2ccccc2c1=O: active
CCn1c(SCc2cccc(C)c2)nnc1-c1cnccn1: inactive
CNC(=O)c1cc2nc(N(C)C)n(-c3ccc(F)cc3)c2s1: inactive
COc1ccccc1OCC(=O)Nc1ccc2c(c1)CCC(=O)N2Cc1ccccc1: inactive
O=C(OCCCN1C(=O)c2cccc3c(N4CCCCC4)ccc(c23)C1=O)c1ccccn1: inactive
Cc1ccc(C(=O)Nc2cc3c4c(c2)CC(=O)N4CCC3)cc1: inactive

Task: Could you kindly confirm the outcome this assay logged for `Cc1cc(C)nc(SCCn2c(N3CCC(Cc4ccccc4)CC3)nc3c2c(=O)n(C)c(=O)n3C)n1` ?
Output: active

Task: Next: `C/C=C\C1=CC(=O)[C@]23C[C@H]2[C@]2(C)CO[C@@]1(O)[C@@]3(O)O2`
Output: inactive

Task: Next: `Cc1cc(C(=O)CN2CCN(Cc3ccc4c(c3)OCO4)CC2)c(C)n1-c1ccc2c(c1)OCO2`
Output: inactive

Task: Next: `COc1ccc(Cl)cc1-n1nnc(C(=O)N2CCc3ccccc3C2)c1C`
Output: inactive

###

molecular target: Ubiquitin carboxyl-terminal hydrolase 30 (Homo sapiens); experiment: inhibitors of ubiquitin-specific protease 30 deubiquitylating enzyme, concentration dependence, in vitro biochemical, validation of primary hits (AID 1645865); conditions: purified USP30, Ub-rhodamine cleavage, fluorescence, 2 h
The source made the active and inactive calls.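 The calls were made as follows: active = maximal inhibition of the USP30 enzyme reaching 30% or more across the dose series; inactive = the rest.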
Pick one: Yes for active, No for inactive

Solved cases (4 shown):
NC(=O)CCC(=O)N[C@H]1C[C@H]2CN(Cc3ccccc3)c3ccccc3CN2C1: No
CCc1ccc2[nH]c(=O)c(CN(CCc3ccc(OC)c(OC)c3)C(=O)Nc3ccccc3)cc2c1: No
COc1cccc(CNC(=O)c2ccc(CSc3nc4ccncc4n3Cc3ccccc3F)cc2)c1: Yes
COc1ccc(OC)c(-n2c(SCC(=O)N3CCc4ccccc43)nnc2-c2cccc(S(=O)(=O)N(C)C)c2)c1: Yes

Task: Could you kindly confirm the outcome this assay logged for Cc1cc(O)cc2cc3c(c(O)c12)C(=O)CCC3O (stereo not drawn) ?
Output: No

Task: Next: CCC1OC(O)(C(C)C(O)C(C)C2OC(=O)/C(C)=C/C(C)=CC(C)C(O)C(C)C/C(C)=C/C=C/C2OC)CC(OC(=O)/C=C/C(=O)NC2=C(O)CCC2=O)C1C (stereo not drawn)
Output: No

Task: Next: `O=C(NCc1nc(-c2ccc3c(c2)[nH]c(=O)n3C2CCCC2)no1)c1ccccc1`
Output: No

Task: Next: `O=C(COc1cccc(C(=O)NCc2ccccc2)c1)Nc1ccc(Oc2ccccc2)cc1`
Output: No

Task: Next: `O=C(Nc1ccc(Oc2cccc3cccnc23)cc1)c1cccs1`
Output: No
